Target: SARS-CoV-2 RBD protein (Sino Biological, Cat: 40592-V08B) (SARS-CoV-2, UniProt P0DTC2 319-541)
Assay: BLI (Octet), mAb on Protein A sensor
Property: kon; scope: individual binders
Numeric only. Scale: M⁻¹ s⁻¹

Req: I am curious: what kon value has been reported for CoV2-02 (antibody, V domains shown) VH: QVQMVQSGAEMKKPGASVKVSCKTSGYTFTNSYIHWVRQAPGQGLEWMGWINPISGGTNYAQKFQGRVTMTRDTSINTAYMELSRLRSDDTAVYYCARDRGDYDYGWGTSPFYFDYWGQGTLVSVSS VL: AIQMTQSPSSLSASVGDRVTITCRASQPISKYLNWYQQKPGKAPKLLIYAASSLQSGVPSSFSGSGFGTDFTLTISNLQPEDFATYYCQQSNGIPLTFGGGTKVDIK ?
Resp: 63500

Req: Entry CoV2-05 (antibody, V domains shown) VH: EVQLVESGGGVARPGGSLRLSCAASGFTFDDYGMSWVRQVPGKGLEWVAGINWNGERIGYADSVKGRFTISRDNAKNSLYLQMNSLRAEDTALYYCARPSGDYVAWYFNLWGRGTLVTVSS VL: QAALTQPRSVSGSPGQSVTISCTGTGSDVGPYKYVSWYQQHPGKAPKLMIYDVNERPSGVPDRFSGSKSGNTASLTISGLQAEDEADYYCGSYAGNNKWVFGGGTKLTVL please
Resp: 84100

Req: Entry CoV2-13 (antibody, V domains shown) VH: QVQLQQSGAEVKKPGSSVKVSCKASGGNFRSHTFSWVRQAPGQGLEWMGEIMPRFGATNYAQKFQGRVTITADESTGTTYMELSSLKSHDTAVYFCAADLGSGRKFDSWAQGTLVSVSS VL: NIQMTQSPSSLSASVGDRVTITCRASQGIGSDLGWYQQRPGKAPKRLIYAASSLQSGVPSRFSGSGSGTEFTLTISSLQPEDFATYYCLQHNSYPLTFGQGTKVEIK please
Resp: 20300

Req: Entry CoV2-33 (antibody, V domains shown) VH: QVQLVESGGGLVQPGRSLRLSCAASRFTFDDHAMHWVRQAPGKGLEWVSGISWNGGIIGYADSVKGRFTISRDNAKNSLYLQMNSLRAEDTALYYCAKGMGFGESNYYAMDVWGQGTMVTVSS VL: QSALTQPASVSGSPGQSITISCTGTSSDVGGYNYVSWYQQHPGKAPKLIIYDVSNRPSGVSNRFSGSKSGNTASLTISGLQAEDEAYYYCSSYTSISNLVVFGGGTKVTVL please
Resp: 8180

Req: Entry CoV2-20 (antibody, V domains shown) VH: QVQLVESGGDLVQPGRSLRLSCAASGFIFDDYAMHWVRQVPGKGPEWVSGVNRDSTYVGQADSVKGRFTISRDNAKKALFLQMDSLRVEDTALYYCVRGMTRVATDAFDFWGQGTMVTVSS VL: AIQMTQSPSSLSASVGDRVTITCRASQSINGYLNWYQQKPGKAPKLLIYSASRLQSGVPSRFSGSGSGADYTLTISNLQVEDFATYYCQQSYSTPPVTFGQGTRLEIK please
Resp: 27300
